# test_target: T1, endothelial protein C receptor (EPCR), extracellular domain, biotinylated on the N-terminal BAP tag (human, UniProt Q9UNN8 18-210, biotin attached to the N-terminal BAP tag (BirA))
# T1 construct: also called biotinylated recombinant EPCR; ECPR
# T1 sequence: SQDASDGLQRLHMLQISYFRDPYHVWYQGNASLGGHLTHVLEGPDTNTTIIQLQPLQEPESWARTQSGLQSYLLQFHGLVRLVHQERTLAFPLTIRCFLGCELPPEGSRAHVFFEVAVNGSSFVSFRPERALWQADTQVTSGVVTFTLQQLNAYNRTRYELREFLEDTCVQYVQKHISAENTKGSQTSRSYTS
# experiment_summary: SPR
# study_conditions: both partners purified
readout_name: pKd
Quick note: pKd means taking -log10 of the concentration in moles per liter.

Recorded results for 5 binders are shown here.
binder	reported_result
CIDRα1.1 domain of PfEMP1 IT4var19 (domain or fragment, also called CIDRa1.1 IT4var19_IT4; IT4var19 (1.1)) PDCVVVCEGGNCKEKTEDDNCRSEIIKKILKYETPTPIDVLYSGKGQGLITKKLEDFCSSTTNYEGTNVQKWKCYNKNKDYNNCEMNISSYKDATDPNVMLSVECFHSWAKNLLIDTIRWEHQLKNCINNTNVTDCTSKCIKNCECYEKWIKEKEKEWPQVKGVLKKKDETSHNYYDKLKDVFDRFLFEVKGALDQDEKGKWDQFTKDLEKKFGPSVESAGTANSQDAIELLLDHLNDNATTCKDNNSLAVENC	7.80
CIDRα1.8b domain 2053-3 (patient isolate 2053) (domain or fragment) PICGVKCENKSCTDKENDDDCKNKKKYDPPKGVTPIDIPILYSGDKQGDITKKLEDFCYNRTKENEKTYQNWKCYYKDSEFNKCKMESKSGKSTTQEKIISFDEFFYLWVNNLLIDSIMWENDIKHCINNTNVTNCKNKCNENCKCFKNWVKKKEEEWTKVKQILGNRSENLNNYYNKLNSLFKGFFFEVVYKFNNKEEKWNKLTEKLEQKIGSSKGKEGVENPKDAIELLLDHLKENAITCKDNNSLEEDKNCPKIKINPC	8.40
CIDRα1.6b domain GA018_ERS010570 (domain or fragment, also called CIDRa1.6b GA018_ERS010570; GA018 (1.6b)) PYCGLDCVGTECTAKEEIYPDCVYNGEYDPPKDVRPTEINVIDSGNAVNISEKLNDFCTNPTNPNDKIYQKWQCYYKSSKVNKCQMTSLTQTLQKHHYVMTFYIFFDLWVKNLLRDSVKWEIELKDCINNTNVTDCNNKCNKNCVCFDKWVKQKKKEWDSIKKLFKTEKDEMKKYYTNINKNFEFFFFRVMYELNNEEAKWNKLMENLRIKIKSSKRNKRTKDSEGVIKVLFDHLKETATICKDNNTNEACVSSQNATTNPC	7.82
CIDRα1.6a domain of PfEMP1 PFD1235w (domain or fragment, also called CIDRa1.6a PFD1235w_3D7; PFD1235w (1.6a)) PECGVQCSGTTCTPKKVIHPNCKDKETYEPGDAKTTDITVLYSGDEEGDIAQKLQDFCNDKNKENDENYEKWQCYYKSSEINKCQMTPSSHKVPKHGYIMSFYAFFDLWVKNLLIDSINWKNDLTNCINNTNVTDCKNDCNTNCKCFENWAKTKENEWKKVKTIYKNENGNTNNYYKKLNNHFQGYFFHVMKELNKEEKWYKLMEDLKEKIDSSNLKNGTKDSEGAIKVLFDHLKDIAERCIDNNSKDSC	8.06
CIDRα1.1 domain of PfEMP1 IT4var20 (domain or fragment, also called CIDRa1.1 IT4var20_IT4; IT4var20 (1.1)) PDCVVQCKGGKCTEDKKNDKCRSKIIKKILQSEEPTEIHVLNSDDKQGDITKKLEVFCSSTTNYEGRNVQKWKCYNKNSDYNNCEMNISSYKDSTDANVMLSVECFHSWAKNLLIDTIKWEHQLKNCINNTNVTYCESKCIKNCECYEKWIKRKEHEWEKVKNVFGNNNRMSYIYYNNLSRVFDSFLFQVMFALDQDEKGKWDQFTEDLKKKFEPSKTNTPTGKSQDAIEFLLDHLKDNALTCRDNNSNESCDVSKKVKTNPC	9.43

Q: What value of pKd has been reported for the following binder? CIDRα1.7 domain of PfEMP1 IT4var22 (domain or fragment, also called CIDRa1.7 IT4var22_IT4; IT4var22 (1.7)) PYCGLDCGGKTCTAKQEIYPDCVYNGAYEPPNGAETTEITVLYSADQEGDISNKLSEFCNDENNKNSQKWQCYYVSSENNGCKMEKKNANHTPEVKITKFHNFFEMWVTYLLTETITWKDKLKTCMNNTKTADCIHECNKNCVCFDKWVKQKEDEWNSIKKLFTKEKKMPKQYYGNINIYFESFFFHVMKKLNKEAKWNKLMDELRNKIELSKGNEGTKDLQDAIELLLEYLKEKSTICKDNNTNEACDPTVDPTKNPC
Result: 7.77

Q: Fill in: pKd of CIDRα1.6b domain GA019_ERS010031 (domain or fragment, also called CIDRa1.6b GA019_ERS010031; GA019 (1.6b)) PYCGLDCVGKTCTAKQEIYPDCVYNGDYEPPNGAETTEITVLYNDNEGDMSKKLSQFCSNENKENIENYQKWKCYYKDRDDIECEMISSSQKDEKHRKVMIFYNFFDLWVKNLLRDSIKWEIELKDCINNTNVTDCKSVCNVNCECFDKWVKQKEKEWDSIKKLLKKKKNVSKKYYTNINKNFEFFFFRVMYELNNEEAKWNKLMENLRTKINSYKKNKRTKDSEGAIKVLFDHLKETATICKDNNTNEACVSSQNATTNPC is ___
Result: 8.06
